- Test system: ATXN2-luc
- Protocol: cells
- Condition description: read-out: Luc at 1 μm
Counter-ions that a name gives are not always drawn.
Quick list: activity at 1 µM per entry.

# Compound, System, activity at 1 µM, %
measured = [
    ("C[C@@H]1O[C@@H](O[C@H]2CC[C@]3(C=O)[C@H]4CC[C@]5(C)[C@@H](C6=CC(=O)OC6)CC[C@]5(O)[C@@H]4CC[C@]3(O)C2)[C@H](O)[C@H](O)[C@H]1O [CONVALLATOXIN]", "ATXN2-luc", 12),
    ("CO[C@H]1[C@H](O)[C@H](O[C@H]2CC[C@@]3(C=O)[C@H](CC[C@@H]4[C@@H]3CC[C@]3(C)[C@@H](C5=CC(=O)OC5)CC[C@]43O)C2)O[C@@H](C)[C@@H]1O [PERUVOSIDE]", "ATXN2-luc", 15),
    ("C[C@]12CC[C@H](O)C[C@H]1CC[C@@H]1[C@@H]2CC[C@]2(C)[C@@H](C3=CC(=O)OC3)CC[C@]12O [Digitoxigenin]", "ATXN2-luc", 38),
    ("C[C@H]1O[C@@H](O[C@H]2[C@@H](O)C[C@H](O[C@H]3[C@@H](O)C[C@H](O[C@H]4CC[C@@]5(C)[C@H](CC[C@@H]6[C@@H]5C[C@@H](O)[C@]5(C)[C@@H](C7=CC(=O)OC7)CC[C@]65O)C4)O[C@@H]3C)O[C@@H]2C)C[C@H](O)[C@@H]1O [Digoxin]", "ATXN2-luc", 47),
    ("CO[C@H]1[C@H](O)[C@H](O[C@H]2CC[C@@]3(C)[C@H](CC[C@@H]4[C@@H]3CC[C@]3(C)[C@@H](C5=CC(=O)OC5)CC[C@]43O)C2)O[C@@H](C)[C@@H]1O [NERIIFOLIN]", "ATXN2-luc", 17),
    ("C[C@]12CC[C@H](O)C[C@H]1CC[C@@H]1[C@@H]2[C@H](O)C[C@]2(C)[C@@H](C3=CC(=O)OC3)CC[C@]12O [SARMENTOGENIN]", "ATXN2-luc", 53),
    ("C[C@]12CC[C@H](O)C[C@H]1CC[C@@H]1[C@@H]2C[C@@H](O)[C@]2(C)[C@@H](C3=CC(=O)OC3)CC[C@]12O [Digoxigenin]", "ATXN2-luc", 90),
    ("CC[C@H]1CN2CCc3cc(OC)c(OC)cc3[C@@H]2C[C@@H]1C[C@H]1NCCc2cc(OC)c(OC)cc21 [Emetine dihydrochloride]", "ATXN2-luc", 18),
    ("C[C@H]1O[C@@H](O[C@H]2[C@@H](O)C[C@H](O[C@H]3[C@@H](O)C[C@H](O[C@H]4CC[C@@]5(C)[C@H](CC[C@@H]6[C@@H]5CC[C@]5(C)[C@@H](C7=CC(=O)OC7)CC[C@]65O)C4)O[C@@H]3C)O[C@@H]2C)C[C@H](O)[C@@H]1O [DIGITOXIN]", "ATXN2-luc", 27),
    ("C[C@]12CC[C@H]3[C@@H](CC[C@]4(O)C[C@@H](O)CC[C@]34C=O)[C@@]1(O)CC[C@@H]2C1=CC(=O)OC1 [STROPHANTHIDIN]", "ATXN2-luc", 16),
    ("CO[C@H]1C[C@H](O[C@H]2CC[C@]3(C)[C@H]4CC[C@]5(C)[C@@H](C6=CC(=O)OC6)CC[C@]5(O)[C@@H]4CC[C@]3(O)C2)O[C@H](C)[C@H]1O [PERIPLOCYMARIN]", "ATXN2-luc", 75),
    ("C[C@@H]1O[C@@H](O[C@H]2C[C@@H](O)[C@]3(CO)[C@H]4[C@H](O)C[C@]5(C)[C@@H](C6=CC(=O)OC6)CC[C@]5(O)[C@@H]4CC[C@]3(O)C2)[C@H](O)[C@H](O)[C@H]1O [OUABAIN]", "ATXN2-luc", 14),
]

Reference source: patent US20260137707A1
